Just for reference, patent US20240132521A1 is where these values come from.

# target-under-test: BaF3_EGFRWT cells (Homo sapiens, UniProt P00533)
# Sequence (P00533 whole entry, change not shown): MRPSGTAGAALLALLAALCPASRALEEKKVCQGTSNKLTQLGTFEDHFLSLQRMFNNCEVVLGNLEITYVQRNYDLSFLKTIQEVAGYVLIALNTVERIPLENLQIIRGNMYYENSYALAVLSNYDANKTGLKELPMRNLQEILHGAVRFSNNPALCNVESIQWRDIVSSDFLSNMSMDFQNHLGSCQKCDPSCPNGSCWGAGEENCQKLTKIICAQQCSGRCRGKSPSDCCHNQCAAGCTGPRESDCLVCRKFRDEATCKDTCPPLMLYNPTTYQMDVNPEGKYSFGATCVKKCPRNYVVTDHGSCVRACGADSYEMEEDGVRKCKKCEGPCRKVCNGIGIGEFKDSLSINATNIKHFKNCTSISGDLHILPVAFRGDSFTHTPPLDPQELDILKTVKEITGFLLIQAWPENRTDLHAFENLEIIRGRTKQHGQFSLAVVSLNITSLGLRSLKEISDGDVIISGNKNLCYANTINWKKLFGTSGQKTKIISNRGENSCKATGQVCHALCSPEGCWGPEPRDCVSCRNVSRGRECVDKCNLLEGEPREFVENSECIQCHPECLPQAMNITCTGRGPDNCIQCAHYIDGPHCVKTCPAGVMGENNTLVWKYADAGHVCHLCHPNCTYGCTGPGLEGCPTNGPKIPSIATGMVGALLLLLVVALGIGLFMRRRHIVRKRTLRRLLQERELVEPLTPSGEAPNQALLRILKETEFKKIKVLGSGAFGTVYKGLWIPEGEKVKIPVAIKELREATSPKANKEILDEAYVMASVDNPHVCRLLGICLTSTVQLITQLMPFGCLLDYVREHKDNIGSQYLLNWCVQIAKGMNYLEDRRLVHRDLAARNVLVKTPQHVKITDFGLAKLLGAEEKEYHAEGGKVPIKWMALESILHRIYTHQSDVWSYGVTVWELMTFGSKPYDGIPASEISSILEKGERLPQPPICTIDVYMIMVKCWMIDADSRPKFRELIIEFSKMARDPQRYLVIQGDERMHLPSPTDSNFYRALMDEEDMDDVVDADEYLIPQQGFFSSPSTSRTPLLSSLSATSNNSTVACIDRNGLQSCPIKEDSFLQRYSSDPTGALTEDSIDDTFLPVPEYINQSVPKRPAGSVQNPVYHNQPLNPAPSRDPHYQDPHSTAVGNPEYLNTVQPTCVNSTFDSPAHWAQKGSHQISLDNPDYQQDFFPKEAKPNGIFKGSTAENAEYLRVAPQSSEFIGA
# procedure-details: Cell growth inhibition assay (CellTiterGlo), BaF3_EGFRWT
# Type: cell-based
# test-settings: cell growth inhibition, 80 ng/mL EGF, 3 days treatment, read-out: EGFR WT IC50
observation-type: GI50

# compound, target-under-test, GI50
measured = [
    ("C=CC(=O)N1CCCC(c2ccn3ncnc(Nc4ccc(Oc5ccn6ncnc6c5)c(C)c4)c23)CC1 (single isomer, unassigned) [Examples 111 and 112, second eluting isomer]", "BaF3_EGFRWT cells (Homo sapiens, UniProt P00533)", "1500 to 5000 nM"),
    ("Cc1cc(Nc2ncnn3ccc(C4CCCN(C(=O)C(F)Cl)CC4)c23)ccc1Oc1ccn2ncnc2c1 (single isomer, unassigned) [Examples 145, 146, 147 and 148, second eluting isomer]", "BaF3_EGFRWT cells (Homo sapiens, UniProt P00533)", "500 to 1500 nM"),
    ("C=C(CN(C)C)C(=O)N1CC2CCC1CC2c1ccn2ncnc(Nc3ccc(Oc4ccn5ncnc5c4)c(C)c3)c12 (single isomer, unassigned) [Examples 135 and 136, second eluting isomer]", "BaF3_EGFRWT cells (Homo sapiens, UniProt P00533)", "< 200 nM"),
]

Memo: Cc1cc(Nc2ncnn3ccc(C4CCCN(C(=O)/C=C/CN(C)C)C4)c23)ccc1Oc1ccn2ncnc2c1 (single isomer, unassigned) [Examples 107 and 108, first eluting isomer] , reported GI50: 1500 to 5000 nM

Memo: C=C(CN(C)C)C(=O)N1C2CCC1CC(c1ccn3ncnc(Nc4ccc(Oc5ccn6ncnc6c5)c(C)c4)c13)C2 (single isomer, unassigned) [Examples 126 and 127, second eluting isomer] , reported GI50: 1500 to 5000 nM
